Every entry's value here was drawn from patent US20230356105A1.

Here, each record is paired with measured Precipitate concentration [mM] Nd data.
# procedureDetails: Use of additives to improve separation of Nd/Dy mixture by precipitation with L5 (Example 18)
# Assay type: physicochemical
# assayContext: additive 100 mM; 11 mM L5

Identify measured Precipitate concentration [mM] Nd corresponding to Cl [chloride]
4.62 mM

Identify measured Precipitate concentration [mM] Nd corresponding to CC(=O)O [acetate]
4.85 mM

Identify measured Precipitate concentration [mM] Nd corresponding to O=[N+]([O-])O [nitrate]
4.39 mM

Identify measured Precipitate concentration [mM] Nd corresponding to N#C[S-].[Na+] [thiocyanate]
4.66 mM

Identify measured Precipitate concentration [mM] Nd corresponding to O=C(O)c1ccccc1 [benzoic acid]
4.60 mM

Identify measured Precipitate concentration [mM] Nd corresponding to O=CO [formate]
4.85 mM

Identify measured Precipitate concentration [mM] Nd corresponding to O=S(=O)(O)O [sulfate]
4.90 mM

Identify measured Precipitate concentration [mM] Nd corresponding to NCC(=O)O [glycine]
4.61 mM
